List of Arterial Blood Pressure change (side effects) values.
Tested on: arterial blood pressure
measurement.description: Change of arterial blood pressure in anesthetized dogs (Experimental Example 4)
condition.label: 100 μg/kg i.v., 5 min

Past entries and their recorded results:
[
  {
    "compound": "CC(=O)O[C@@H]1C(=O)N(CCN(C)C)c2ccc(C)cc2S[C@@H]1c1ccc(C)cc1 [Compound A]",
    "recorded.measurement": "-1.8 ΔmmHg"
  },
  {
    "compound": "COc1ccc([C@H]2Sc3ccccc3N(CCN(C)C)C(=O)[C@H]2OC(C)=O)cc1 [F]",
    "recorded.measurement": "1.0 ΔmmHg"
  },
  {
    "compound": "COc1ccc([C@@H]2Sc3ccccc3N(CCN(C)C)C(=O)[C@@H]2OC(C)=O)cc1 [H, reference compound]",
    "recorded.measurement": "-2.0 ΔmmHg"
  }
]

Turning to the following compound.
Q. Hello, I am looking for reported Arterial Blood Pressure change (side effects) with arterial blood pressure for CC(=O)O[C@H]1C(=O)N(CCN(C)C)c2ccc(C)cc2S[C@H]1c1ccc(C)cc1 [G, reference compound] . Could you help?
A. 1.5 ΔmmHg

====

Tested on: femoral artery
measurement.description: Increase in femoral arterial blood flow in anesthetized dogs, cumulative i.v. dosing (Experimental Example 1)
Format: in vivo, dog
condition.label: 300 μg/kg i.v., 60 min after administration
Structures can show the parent of a compound that is named as a salt.
molecules and their reported Increase in femoral arterial blood flow
Reply with just the number (in mL/min).

Example results:
[
  {
    "molecule": "COc1ccc([C@H]2Sc3ccccc3N(CCN(C)C)C(=O)[C@H]2OC(C)=O)cc1 [F]",
    "recorded.measurement": 37
  },
  {
    "molecule": "CNCCN1C(=O)[C@@H](OC(C)=O)[C@@H](c2ccc(C)cc2)Sc2cc(C)ccc21 [C]",
    "recorded.measurement": 65
  },
  {
    "molecule": "CNCCN1C(=O)[C@@H](O)[C@@H](c2ccc(C)cc2)Sc2cc(C)ccc21 [D]",
    "recorded.measurement": 35
  },
  {
    "molecule": "CC(=O)O[C@@H]1C(=O)N(CCN(C)C)c2ccc(CO)cc2S[C@@H]1c1ccc(C)cc1 [Compound E, oxalate]",
    "recorded.measurement": 36
  },
  {
    "molecule": "Cc1ccc([C@H]2Sc3cc(C)ccc3N(CCN(C)C)C(=O)[C@H]2O)cc1 [B]",
    "recorded.measurement": 74
  }
]

Now, please, on to the next molecule.
Q. Which Increase in femoral arterial blood flow reading was recorded for the molecule CC(=O)O[C@@H]1C(=O)N(CCN(C)C)c2ccc(C)cc2S[C@@H]1c1ccc(C)cc1 [Compound A] ?
A. 32

====

Tested on: vertebral artery
measurement.description: Change of vertebral arterial blood flow in anesthetized dogs (Experimental Example 4)
condition.label: 100 μg/kg i.v., 3 min
readout.label: Vertebral Arterial Blood Flow change (side effects)

Below, each entry is followed by its recorded Vertebral Arterial Blood Flow change (side effects) result.
[
  {
    "compound": "COc1ccc([C@H]2Sc3ccccc3N(CCN(C)C)C(=O)[C@H]2OC(C)=O)cc1",
    "target": "vertebral artery",
    "recorded.measurement": "-1.0 Δ ml/min"
  },
  {
    "compound": "CC(=O)O[C@H]1C(=O)N(CCN(C)C)c2ccc(C)cc2S[C@H]1c1ccc(C)cc1 [G, reference compound]",
    "target": "vertebral artery",
    "recorded.measurement": "18.0 Δ ml/min"
  },
  {
    "compound": "COc1ccc([C@@H]2Sc3ccccc3N(CCN(C)C)C(=O)[C@@H]2OC(C)=O)cc1 [H, reference compound]",
    "target": "vertebral artery",
    "recorded.measurement": "18.0 Δ ml/min"
  }
]

Now for a further compound.
Q. Please give the measured Vertebral Arterial Blood Flow change (side effects) for this compound: "CC(=O)O[C@@H]1C(=O)N(CCN(C)C)c2ccc(C)cc2S[C@@H]1c1ccc(C)cc1"
A. 0.0 Δ ml/min

The measured values listed here are drawn from patent US5637582A.
